Measured values drawn from ChEMBL document CHEMBL6121066 for this set.

Measured Emax, listed per entry.
- Tested on: HCT-116
- Procedure text: Induction of molecular glue effect mediated DNMT1 degradation in human HCT-116 cells assessed as reduction in DNMT1 protein level by measuring maximal efficacy at 1 uM incubated for 24 hrs by Western blot analysis relative to control
- Assay type: cell-based
Numeric only. Scale: %

CCc1c(C#N)c(SC(C(N)=O)c2ccccc2)nc(N2CCNC(=O)C2)c1C#N (centres undefined) :: 65
CCc1c(C#N)c(SC(C(N)=O)c2ccccc2)nc(N2CCC(N)CC2)c1C#N (centres undefined) :: 89
CCc1c(C#N)c(SC(C(N)=O)c2ccccc2)nc(N2CCN(C(=O)c3ccc(Br)cc3)CC2)c1C#N (centres undefined) :: 79
CCc1c(C#N)c(SC(C(N)=O)c2ccccc2)nc(N2CCN(C(=O)C3CNC3)CC2)c1C#N (centres undefined) :: 56
CCc1c(C#N)c(SC(C(N)=O)c2ccccc2)nc(N(C)CC(N)=O)c1C#N (centres undefined) :: 88
CCc1c(C#N)c(SC(C(N)=O)c2ccccc2)nc(N2CCCNCC2)c1C#N (centres undefined) :: 87
CCc1c(C#N)c(SC(C(N)=O)c2ccccc2)nc(N2CC3(CN(C(=O)C(C)(C)C)C3)C2)c1C#N (centres undefined) :: 43
CCc1c(C#N)c(SC(C(N)=O)c2ccccc2)nc(N2CCN(C(C)=O)CC2)c1C#N (centres undefined) :: 87

Now, please, on to the next molecule.
So, CCc1c(C#N)c(SC(C(N)=O)c2ccccc2)nc(N(C)CCN)c1C#N (centres undefined) ? Its Emax was 79
